tested target: BCL6 (Homo sapiens (Human))
test summary: Immunofluorescence high content imaging of BCL6 degradation in T47D cells
Type: cell-based
condition description: T47D cells
// reported Dmax per item

GET /values?readout=Dmax&item= CCC(C1CCN(c2ccc3c(c2)C(=O)N(C2CCC(=O)NC2=O)C3=O)CC1)N1CCN(c2ncc(Cl)c(Nc3ccc4c(c3)cc(OCC(=O)NC)c(=O)n4C)n2)CC1 (stereo not drawn)
< 50%

Return reported Dmax; argument: CNC(=O)COc1cc2cc(Nc3nc(N4CCC(CN5CC6(CCN(c7ccc8c(c7)CN(C7CCC(=O)NC7=O)C8=O)CC6)C5)CC4)ncc3Cl)ccc2n(C(C)C)c1=O (stereo not drawn)
≥ 70%

Could you tell me which Dmax is on file for CNC(=O)COc1cc2cc(Nc3nc(N4CCC(CN5CCC(c6ccc(C(=O)NC7CCC(=O)NC7=O)o6)CC5)CC4)ncc3Cl)ccc2n(C)c1=O (stereo not drawn) ?
< 50%

====

tested target: BCL6 (Homo sapiens (Human), UniProt P41182)
test summary: Immunofluorescence high content imaging of BCL6 degradation in T47D cells
Format: cell-based
condition description: class symbols A-D, read-out: EC50 (nM)*
// reported DC50 per item

CNC(=O)COc1cc2cc(Nc3nc(N4CCC(OCCOCCOCCOc5ccc6c(c5)CN(C5CCC(=O)NC5=O)C6=O)CC4)ncc3Cl)ccc2n(C)c1=O (stereo not drawn): > 100 nM

Lookup: DC50 / BCL6 (Homo sapiens (Human), UniProt P41182) / CC(=O)COc1cc2cc(Nc3nc(N4CCN(C5CCN(c6ccc7c(c6)C(=O)N(C6CCC(=O)NC6=O)C7=O)CC5)CC4)ncc3Cl)ccc2n(C)c1=O (stereo not drawn)
10 to 50 nM

Query for BCL6 (Homo sapiens (Human), UniProt P41182): what DC50 does the record show for CC(=O)COc1cc2cc(Nc3nc(N4CCC(CN5CCN(c6ccc7c(c6)C(=O)N(C6CCC(=O)NC6=O)C7=O)CC5)CC4)ncc3Cl)ccc2n(C)c1=O (stereo not drawn) ?
10 to 50 nM

====

tested target: BCL6 (Homo sapiens (Human))
test summary: Immunofluorescence high content imaging of BCL6 degradation in T47D cells
Assay type: cell-based
condition description: class symbols A-D, read-out: EC50 (nM)*
readout: DC50

Worked examples, 3 compounds total:
CNC(=O)COc1cc2cc(Nc3nc(N4CCC(OCCOCC(=O)N[C@H](C(=O)N5C[C@H](O)C[C@H]5C(=O)NCc5ccc(-c6scnc6C)cc5)C(C)(C)C)CC4)ncc3Cl)ccc2n(C)c1=O: 50 to 100 nM
CC(=O)COc1cc2cc(Nc3nc(N4CCC(OC5CCN(c6ccc7c(c6)C(=O)N(C6CCC(=O)NC6=O)C7=O)CC5)CC4)ncc3Cl)ccc2n(C)c1=O (stereo not drawn): 50 to 100 nM
CC(=O)COc1cc2cc(Nc3nc(N4CCN(CCCN5CCN(c6ccc7c(c6)CN(C6CCC(=O)NC6=O)C7=O)CC5)CC4)ncc3Cl)ccc2n(C)c1=O (stereo not drawn): 10 to 50 nM

Find the recorded DC50 belonging to CNC(=O)COc1cc2cc(Nc3nc(N4CCC(OCCOCCOCCOCCOCCOc5ccc6c(c5)C(=O)N(C5CCC(=O)NC5=O)C6=O)CC4)ncc3Cl)ccc2n(C)c1=O (stereo not drawn) and report it.
> 100 nM

# input compound: CNC(=O)COc1cc2cc(Nc3nc(N4CCC(OCCOCCOCCOCCOc5cc(-c6scnc6C)ccc5CNC(=O)[C@@H]5C[C@@H](O)CN5C(=O)C(c5cc(C)no5)C(C)C)CC4)ncc3Cl)ccc2n(C)c1=O (stereo partly drawn) ; wanted: its DC50
> 100 nM

====

tested target: BCL6 (Homo sapiens (Human), UniProt P41182)
test summary: Immunofluorescence high content imaging of BCL6 degradation in T47D cells
Assay type: cell-based
condition description: T47D
readout: Dmax

Consider the molecule shown here: CNC(=O)COc1cc2cc(Nc3nc(N4CCN(CC5CCC6(CC5)CN(c5cccc7c5C(=O)N(C5CCC(=O)NC5=O)C7=O)C6)CC4)ncc3Cl)ccc2n(C(C)C)c1=O (centres unmarked) What is its recorded Dmax?
≥ 70%

Query: Dmax; subject: CNC(=O)COc1cc2cc(Nc3nc(N4CCC(CN5CCN(c6ccc7c(c6)C(=O)N(C6CCC(=O)NC6=O)C7=O)CC5)CC4)ccc3Cl)ccc2n(C)c1=O (centres unmarked)
< 50%

For CNC(=O)COc1cc2cc(Nc3nc(N4CCC(CN5CC6(CCN(c7cccc8c7C(=O)N(C7CCC(=O)NC7=O)C8=O)C6)C5)CC4)ncc3Cl)ccc2n(C(C)C)c1=O (centres unmarked) , what is its reported Dmax?
50 to 70%

Look at this molecule and give its reported Dmax. CCn1c(=O)c(OCC(=O)NC)cc2cc(Nc3nc(N4CCN(CC5CN(C6CN(c7ccc8c(c7)C(=O)N(C7CCC(=O)NC7=O)C8=O)C6)C5)CC4)ncc3Cl)ccc21 (centres unmarked)
< 50%

Tell me the measured Dmax of CNC(=O)COc1cc2cc(Nc3nc(N4CCC(O[C@H]5C[C@@H](COc6cccc7c6C(=O)N(C6CCC(=O)NC6=O)C7=O)N(C)C5)CC4)ncc3Cl)ccc2n(C(C)C)c1=O (some centres unmarked) , please.
< 50%

====

tested target: BCL6 (Homo sapiens (Human))
test summary: Immunofluorescence high content imaging of BCL6 degradation in T47D cells
Format: cell-based
The following compounds are shown together with reported IC50 values.

Consider the worked cases shown below.
CNC(=O)[C@H](C)Oc1cc2cc(Nc3nc(N4CCC(CN5CCN(c6ccc7c(c6)C(=O)N([C@H]6CCC(=O)NC6=O)C7=O)CC5)CC4)ncc3Cl)ccc2n(C)c1=O: ≥ 100 nM
Cn1c(=O)c(N2CCC2=O)cc2cc(Nc3nc(N4CCN(CC5CCN(c6ccc7c(c6)C(=O)N(C6CCC(=O)NC6=O)C7=O)CC5)CC4)ncc3Cl)ccc21 (centres unmarked): ≥ 100 nM
CNC(=O)COc1cc2cc(Nc3nc(N4CCC(C(C)(C)N5CCN(c6ccc7c(c6)C(=O)N(C6CCC(=O)NC6=O)C7=O)CC5)CC4)ncc3Cl)ccc2n(C)c1=O (centres unmarked): 10 to 50 nM
CNC(=O)COc1cc2cc(Nc3nc(N4CCOC(CN5CCN(c6cccc7c6C(=O)N(C6CCC(=O)NC6=O)C7=O)CC5)C4)ncc3Cl)ccc2n(C)c1=O (centres unmarked): 50 to 100 nM

--- query ---
I am curious: what IC50 value has been reported for CNC(=O)COc1cc2cc(Nc3nc(N4CCC(OC5CCCN(c6ccc7c(c6)C(=O)N(C6CCC(=O)NC6=O)C7=O)CC5)CC4)ncc3Cl)ccc2n(C)c1=O (centres unmarked) ?
≥ 100 nM

====

tested target: BCL6 (Homo sapiens (Human))
test summary: BCL6 TR-FRET assay (BCL6-Avitag-Biotin / BCoR-Cy5 peptide)
Type: binding
condition description: class symbols A-D; read-out: IC50 (nM)***
// reported IC50 per item

Before answering, review these 4 worked examples.
Cn1c(=O)ccc2cc(Nc3nc(N4CCC(CN5CCN(c6ccc7c(c6)C(=O)N(C6CCC(=O)NC6=O)C7=O)CC5)CC4)ncc3Cl)ccc21 (centres unmarked): ≥ 100 nM
CNC(=O)COc1cc2cc(Nc3nc(N4CCC(CN5CCN(c6ccc7c(c6)C(=O)N(C6CCC(=O)NC6=O)C7=O)CC5)CC4)ncc3Cl)ccc2n(C)c1=O (centres unmarked): 10 to 50 nM
CC(=O)COc1cc2cc(Nc3nc(N4CCN(C5CCCN(c6ccc7c(c6)C(=O)N(C6CCC(=O)NC6=O)C7=O)C5)CC4)ncc3Cl)ccc2n(C)c1=O (centres unmarked): 10 to 50 nM
CNC(=O)COc1cc2cc(Nc3nc(N4CCC(N(C)C5CCN(CC6CCN(c7ccc(C#Cc8ccc9c(c8)CN(C8CCC(=O)NC8=O)C9=O)cc7)CC6)CC5)CC4)ncc3Cl)ccc2n(C)c1=O (centres unmarked): < 10 nM

// moving on: another record for IC50
If you can, please state the reported IC50 value of CC(=O)COc1cc2cc(Nc3nc(C#CC4CCCN(Cc5ccc6c(c5)C(=O)N(C5CCC(=O)NC5=O)C6=O)C4)ncc3Cl)ccc2n(C)c1=O (centres unmarked) .
≥ 100 nM

====

Known Dmax of a selection of compounds
tested target: BCL6 (Homo sapiens (Human))
test summary: Immunofluorescence high content imaging of BCL6 degradation in T47D cells
Format: cell-based
condition description: T47D

Check out these entries, answers already filled in.
CNC(=O)COc1cc2cc(Nc3nc(N4CCN(CC5CCN(c6ccc7c(c6)C(=O)N(C6CCC(=O)NC6=O)C7=O)CC5)CC4)c(C#N)cc3Cl)ccc2n(C)c1=O (stereo not drawn): < 50%
CNC(=O)COc1cc2cc(Nc3nc(N4CCC5(CC4)CN(CC4CCN(c6ccc(C(=O)NC7CCC(=O)NC7=O)c(OC)c6)CC4)C5)ncc3Cl)ccc2n(C(C)C)c1=O (stereo not drawn): ≥ 70%

Switching to the query record.
Query: Dmax; subject: CNC(=O)COc1cc2cc(Nc3nc(N4CCN(CC5CCN(c6ccc(C(=O)NC7CCC(=O)NC7=O)nc6)CC5)CC4)ncc3Cl)ccc2n(C)c1=O (stereo not drawn)
< 50%
